system: BSC-1; assay: Inhibition of VSVG-EGFP anterograde transport from endoplasmic reticulum to plasma membrane of african green monkey BSC1 cells after 3 hrs by epifluorescence microscopy; assay type: functional, cell-based; settings: Chlorocebus aethiops, BSC-1, 3 h
readout-name: IC50 (µM)
Kindly provide the numeric value in µM only, without the unit symbol.

structure: CO/N=C1\C[C@H]2Oc3c(Br)c(OCC4CC4)cc4c3[C@@]2(C[C@@H](CO)NC4)[C@H](SCc2ccc(OC)cc2)C1
uom: µM
IC50: 12

Let us examine a further case.
Q: Recorded IC50 of COc1ccc(CS[C@@H]2C/C(=N/OCc3ccccc3)C[C@H]3Oc4c(Br)c(OCC5CC5)cc5c4[C@]32C[C@@H](CO)NC5)cc1 , please.
Ans: 12

----------
biological target: Cdc42 protein (Xenopus laevis); assay: Inhibition of CDC42-mediated actin polymerization in PIP2-stimulated Xenopus laevis egg extract after 6 mins by fluorescence assay
Sequence (Q9DDV6 whole entry): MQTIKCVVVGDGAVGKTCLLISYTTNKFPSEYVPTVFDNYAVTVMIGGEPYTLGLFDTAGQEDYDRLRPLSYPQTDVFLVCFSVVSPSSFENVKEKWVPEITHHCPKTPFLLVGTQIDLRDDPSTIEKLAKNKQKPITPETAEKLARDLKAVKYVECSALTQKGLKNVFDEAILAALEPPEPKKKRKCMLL
readout-name: IC50 (nM)
Kindly provide the numeric value in nM only, without the unit symbol.

structure: COc1ccc(CS[C@@H]2C/C(=N/OCc3ccccc3)C[C@H]3Oc4c(Br)c(OCC5CC5)cc5c4[C@]32C[C@@H](CO)NC5)cc1
IC50 (nM): 1000

Q: Recorded IC50 of CO/N=C1\C[C@H]2Oc3c(Br)c(OCC4CC4)cc4c3[C@@]2(C[C@@H](CO)NC4)[C@H](SCc2ccc(OC)cc2)C1 , please.
Ans: 3000

----------
biological target: Cell division control protein 42 homolog (Homo sapiens, UniProt P60953); experiment: Inhibition of GEF-independent nucleotide exchange activity of prenylated Cdc42 after 3 mins in presence of 4 mM Mg2+ chelator EDTA
Sequence (P60953 whole entry): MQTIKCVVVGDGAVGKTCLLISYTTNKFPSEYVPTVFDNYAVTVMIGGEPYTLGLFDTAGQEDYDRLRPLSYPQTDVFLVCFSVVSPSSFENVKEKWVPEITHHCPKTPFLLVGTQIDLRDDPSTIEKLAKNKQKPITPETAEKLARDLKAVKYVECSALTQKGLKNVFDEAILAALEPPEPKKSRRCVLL
Measured IC50 of individual entries

compound: COc1ccc(CS[C@@H]2C/C(=N/OCc3ccccc3)C[C@H]3Oc4c(Br)c(OCC5CC5)cc5c4[C@]32C[C@@H](CO)NC5)cc1 [SECRAMINE A]
IC50: 9 µM

Q: Recorded IC50 of CO/N=C1\C[C@H]2Oc3c(Br)c(OCC4CC4)cc4c3[C@@]2(C[C@@H](CO)NC4)[C@H](SCc2ccc(OC)cc2)C1 [SECRAMINE B] , please.
Ans: 7 µM

These entries and their values trace back to ChEMBL document CHEMBL1221177.
